LC50 at 48 h reference
assay: Test Example 1: Test for toxicity to fishes (killifish); type: in vivo, killifish (Oryzias latipes); conditions: water; killifish, 48 hours; read-out: Toxicity to fishes TLm48 (medium tolerance limit, 48 hours)

> print(dat)
                                   compound  assay.readout  measured.result
1  CC1(C)C(C(=O)OC(C#N)c2cccc(Oc3ccc(Br)cc3)c2)C1C(Br)C(Cl)(Cl)Br (stereo not drawn)   LC50 at 48 h          4 µg/mL
2  CC1(C)[C@H](C(=O)OC(C#N)c2cccc(Oc3ccc(Br)cc3)c2)[C@@H]1C(Br)C(Br)(Br)Br (stereo partly drawn)   LC50 at 48 h        > 5 µg/mL
3  CC1(C)C(C(=O)OC(C#N)c2cccc(Oc3ccccc3)c2)C1C(Br)C(Cl)(Cl)Br (stereo not drawn) [(A), reference compound]   LC50 at 48 h        0.5 µg/mL

For CC1(C)[C@H](C(=O)OC(C#N)c2cccc(Oc3ccc(Br)cc3)c2)[C@H]1C(Br)C(Br)(Br)Br (stereo partly drawn) , what is its reported LC50 at 48 h?
> 5 µg/mL

Also check CC1(C)C(C(=O)OC(C#N)c2cccc(Oc3ccc(Br)cc3)c2)C1C(Br)C(Br)(Br)Br (stereo not drawn)
> 10 µg/mL

Also check CC1(C)C(C(=O)OC(C#N)c2cccc(Oc3ccc(F)cc3)c2)C1C(Br)C(Cl)(Cl)Br (stereo not drawn) [(B), reference compound]
0.1 µg/mL
